Reference source for all entries: patent US6734182B2

Biological target: human Y2 receptor (Homo sapiens)
Construct: expressed in transfected cells
Sequence (P49146 whole entry): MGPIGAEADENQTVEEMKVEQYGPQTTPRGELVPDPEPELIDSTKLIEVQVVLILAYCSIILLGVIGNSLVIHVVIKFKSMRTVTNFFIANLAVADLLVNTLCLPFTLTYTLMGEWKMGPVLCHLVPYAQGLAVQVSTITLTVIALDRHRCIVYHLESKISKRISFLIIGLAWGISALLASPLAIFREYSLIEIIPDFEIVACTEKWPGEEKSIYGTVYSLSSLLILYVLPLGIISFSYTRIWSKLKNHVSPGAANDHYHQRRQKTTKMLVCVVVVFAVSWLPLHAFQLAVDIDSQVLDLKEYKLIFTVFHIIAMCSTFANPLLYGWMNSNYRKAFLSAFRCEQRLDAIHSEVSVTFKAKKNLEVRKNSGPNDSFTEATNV
Assay: Radioligand binding to cloned human Y2 receptor (125I-PYY)
Settings: cloned human Y2, stably transfected cells, read-out: Binding Affinity (K1 (nM) vs. 125I-PYY) Human Receptor Y2
Endpoint: Ki (nM)
Could you give me the number in nM? Just the number is fine.

- Compound: "Cl.O=S(=O)(NCC1CCC(CNCc2cccc3ccccc23)CC1)c1ccccc1C(F)(F)F (stereo not shown)"
  Ki (nM): 617
- Compound: "Cl.O=[N+]([O-])c1ccccc1S(=O)(=O)NCC1CCC(CNCC2CCc3ccccc3C2)CC1 (stereo not shown)"
  Ki (nM): 7760
- Compound: "Cl.O=S(=O)(NCC1CCC(CNCc2ccc3ccccc3c2)CC1)c1ccccc1C(F)(F)F (stereo not shown)"
  Ki (nM): 1610

# input // returns reported Ki for input Cl.Cl.O=[N+]([O-])c1ccccc1S(=O)(=O)NCC1CCC(CNCc2ccnc3ccccc23)CC1 (stereo not shown)
# output 5280

# input And then Cl.Cl.O=[N+]([O-])c1ccccc1S(=O)(=O)NCC1CCC(CNCc2ccc3ccccc3n2)CC1 (stereo not shown) , what is it?
# output 58200

# input Subsequent entry: O=S(=O)(NC[C@H]1CC[C@H](CNC(CO)Cc2ccc(Cl)cc2)CC1)c1cccc2ccccc12 (relative stereo)
# output 851

# input Likewise for Cl.O=S(=O)(NCC1CCC(CNCC2CCc3ccccc3C2)CC1)c1cccc2ccccc12 (stereo not shown) ?
# output 955

###

Items are presented alongside their recorded Ki.
Target: human Y1 receptor (Homo sapiens, UniProt P25929)
Construct: expressed in transfected cells
Sequence (P25929 whole entry): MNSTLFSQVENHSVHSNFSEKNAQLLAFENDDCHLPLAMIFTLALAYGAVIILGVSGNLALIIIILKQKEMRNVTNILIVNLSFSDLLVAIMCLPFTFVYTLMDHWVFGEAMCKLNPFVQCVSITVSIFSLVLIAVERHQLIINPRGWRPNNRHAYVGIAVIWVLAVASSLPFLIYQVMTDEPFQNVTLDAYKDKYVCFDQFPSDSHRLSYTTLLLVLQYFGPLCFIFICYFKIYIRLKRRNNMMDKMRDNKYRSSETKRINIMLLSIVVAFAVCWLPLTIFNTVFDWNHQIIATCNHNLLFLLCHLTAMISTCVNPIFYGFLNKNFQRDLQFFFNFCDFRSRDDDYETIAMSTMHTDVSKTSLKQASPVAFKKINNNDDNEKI
Test: Radioligand binding to cloned human Y1 receptor (125I-PYY)
Conditions: cloned human Y1, stably transfected cells, read-out: Binding Affinity (K1 (nM) vs. 125I-PYY) Human Receptor Y1
Entry rule: numbers only, all in nM.

Example cases with answers are listed next.
- Molecule: "Cl.O=S(=O)(NCC1CCC(CNCc2ccc3ccccc3c2)CC1)c1ccccc1C(F)(F)F (stereo not drawn) [Example 38]"
  Target or system: "human Y1 receptor (Homo sapiens, UniProt P25929)"
  Reported measurement: 13000
- Molecule: "Cl.O=[N+]([O-])c1ccccc1S(=O)(=O)NCC1CCC(CNCC2CCc3ccccc3C2)CC1 (stereo not drawn) [Example 36]"
  Target or system: "human Y1 receptor (Homo sapiens, UniProt P25929)"
  Reported measurement: 16000
- Molecule: "Cl.O=S(=O)(NCC1CCC(CNCC2CCc3ccccc3C2)CC1)c1cccc2ccccc12 (stereo not drawn) [Example 32]"
  Target or system: "human Y1 receptor (Homo sapiens, UniProt P25929)"
  Reported measurement: 3550
- Molecule: "Cl.Cl.O=[N+]([O-])c1ccccc1S(=O)(=O)NCC1CCC(CNCc2ccc3ccccc3n2)CC1 (stereo not drawn) [Example 44]"
  Target or system: "human Y1 receptor (Homo sapiens, UniProt P25929)"
  Reported measurement: 23700
- Molecule: "Cl.O=S(=O)(NCC1CCC(CNCc2cccc3ccccc23)CC1)c1ccccc1C(F)(F)F (stereo not drawn) [Example 37]"
  Target or system: "human Y1 receptor (Homo sapiens, UniProt P25929)"
  Reported measurement: 14500

Consider the record given below.
# input What Ki value was documented for this molecule, Cl.Cl.O=[N+]([O-])c1ccccc1S(=O)(=O)NCC1CCC(CNCc2ccnc3ccccc23)CC1 (stereo not drawn) [Example 45] ?
# output 48700

###

Target: cloned human Y5 receptor (Homo sapiens)
Construct: expressed in transfected cells
Sequence (Q15761 1-445): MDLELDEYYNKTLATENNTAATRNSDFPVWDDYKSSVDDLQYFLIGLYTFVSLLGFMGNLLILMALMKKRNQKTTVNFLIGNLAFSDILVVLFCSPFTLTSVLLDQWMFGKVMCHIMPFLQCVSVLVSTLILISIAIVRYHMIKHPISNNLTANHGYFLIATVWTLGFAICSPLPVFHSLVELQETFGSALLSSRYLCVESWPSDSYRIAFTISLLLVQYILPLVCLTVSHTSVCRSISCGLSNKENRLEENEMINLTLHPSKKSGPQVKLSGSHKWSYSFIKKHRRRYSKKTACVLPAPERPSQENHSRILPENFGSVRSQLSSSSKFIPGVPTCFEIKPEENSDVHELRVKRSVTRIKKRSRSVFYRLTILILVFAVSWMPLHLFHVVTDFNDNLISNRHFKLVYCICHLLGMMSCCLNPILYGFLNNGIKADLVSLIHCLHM
Test: Functional assay: block of NPY-induced inhibition of cAMP accumulation in forskolin-stimulated LM(tk-) cells (radioimmunoassay of cAMP)
Assay type: cell-based
Conditions: antagonism of NPY-induced inhibition of cAMP accumulation, forskolin-stimulated LM(tk-) cells with human Y5; at least three experiments
Outcome label depends on Kb relative to 40 nM: at/above gives TRUE, below gives FALSE.

As a guide, the following entries are already answered.
- Compound: "Cl.O=[N+]([O-])c1ccccc1S(=O)(=O)NCC1CCC(CNCC2CCc3ccccc3C2)CC1 (centres unmarked)"
  Group: "FALSE"
- Compound: "Cl.O=S(=O)(NCC1CCC(CNCc2cccc3ccccc23)CC1)c1ccccc1C(F)(F)F (centres unmarked)"
  Group: "FALSE"
- Compound: "Cl.O=S(=O)(NCC1CCC(CNCc2ccc3ccccc3c2)CC1)c1ccccc1C(F)(F)F (centres unmarked)"
  Group: "FALSE"

# input Identify whether the reported Kb of the following compound is 40 nM or greater: Cl.O=S(=O)(NCC1CCC(CNCC2CCc3ccccc3C2)CC1)c1cccc2ccccc12 (centres unmarked)
# output FALSE

# input Now the same for Cl.Cl.O=[N+]([O-])c1ccccc1S(=O)(=O)NCC1CCC(CNCc2ccnc3ccccc23)CC1 (centres unmarked)
# output TRUE

###

System: food intake in food-deprived rats
Assay: Food intake in food-deprived rats (24 h food deprivation)
Assay type: in vivo, rat
Set-up: concentration or dose not given beside the values
Settings: rats after 24 h food deprivation; two hours after administration of test compound
Output met for Two-hour food intake, percentage of intake compared to control rats, Mean (%) not less than 60%; output not met otherwise.

- Compound: "Cl.O=S(=O)(NCC1CCC(CNCc2ccc3ccccc3c2)CC1)c1ccccc1C(F)(F)F (centres unmarked)"
  Group: "met"

# input In plain terms: is recorded Two-hour food intake, percentage of intake compared to control rats, Mean (%) at least 60% for Cl.O=S(=O)(NCC1CCC(CNCC2CCc3ccccc3C2)CC1)c1ccc2ccccc2c1 (centres unmarked) ?
# output not met

# input Quick one: Cl.Cl.O=[N+]([O-])c1ccccc1S(=O)(=O)NCC1CCC(CNCc2ccc3ccccc3n2)CC1 (centres unmarked)
# output met

# input // same read-out, input: Cl.O=S(=O)(NCC1CCC(CNCC2CCc3ccccc3C2)CC1)c1cccc2ccccc12 (centres unmarked)
# output not met

# input Entry Cl.O=[N+]([O-])c1ccccc1S(=O)(=O)NCC1CCC(CNCC2CCc3ccccc3C2)CC1 (centres unmarked) please
# output not met

# input Try Cl.O=S(=O)(NCC1CCC(CNCc2cccc3ccccc23)CC1)c1ccccc1C(F)(F)F (centres unmarked) next.
# output not met

# input Param item: Cl.Cl.O=[N+]([O-])c1ccccc1S(=O)(=O)NCC1CCC(CNCc2ccnc3ccccc23)CC1 (centres unmarked)
# output met

# input Request: O=S(=O)(NC[C@H]1CC[C@H](CNC(CO)Cc2ccc(Cl)cc2)CC1)c1cccc2ccccc12 (relative stereo)
# output not met

###

Target: human Y4 receptor (Homo sapiens, UniProt P50391)
Construct: expressed in transfected cells
Sequence (P50391 whole entry): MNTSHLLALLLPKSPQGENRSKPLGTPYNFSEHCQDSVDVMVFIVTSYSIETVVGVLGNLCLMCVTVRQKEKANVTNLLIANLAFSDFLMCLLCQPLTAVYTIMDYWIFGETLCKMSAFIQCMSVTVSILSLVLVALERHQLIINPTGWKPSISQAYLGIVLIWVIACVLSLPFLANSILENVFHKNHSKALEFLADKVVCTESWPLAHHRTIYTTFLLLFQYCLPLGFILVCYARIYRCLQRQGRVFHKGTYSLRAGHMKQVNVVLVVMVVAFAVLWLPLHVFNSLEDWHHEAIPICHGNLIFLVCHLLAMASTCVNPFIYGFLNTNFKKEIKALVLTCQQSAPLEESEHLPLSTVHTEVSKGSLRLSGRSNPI
Test: Radioligand binding to cloned human Y4 receptor (125I-PYY)
Conditions: cloned human Y4, stably transfected cells, read-out: Binding Affinity (K1 (nM) vs. 125I-PYY) Human Receptor Y4
Endpoint: Ki (nM)
Give just the numeric value; nM need not be written.

Some solved cases for reference:
- Molecule: "Cl.Cl.O=[N+]([O-])c1ccccc1S(=O)(=O)NCC1CCC(CNCc2ccnc3ccccc23)CC1 (stereo not shown) [Example 45]"
  Unit abbreviation: "nM"
  Reported measurement: 63100
- Molecule: "Cl.O=[N+]([O-])c1ccccc1S(=O)(=O)NCC1CCC(CNCC2CCc3ccccc3C2)CC1 (stereo not shown) [Example 36]"
  Unit abbreviation: "nM"
  Reported measurement: 20400

# input So what does the record say about Ki for Cl.O=S(=O)(NCC1CCC(CNCc2ccc3ccccc3c2)CC1)c1ccccc1C(F)(F)F (stereo not shown) [Example 38] ?
# output 18500

# input Proceed to Cl.O=S(=O)(NCC1CCC(CNCC2CCc3ccccc3C2)CC1)c1cccc2ccccc12 (stereo not shown) [Example 32]
# output 11700
